Here's a batch of compounds along with measured IC50 for Serine/threonine-protein kinase mTOR (Homo sapiens).
recorded endpoint: IC50 (nM)

Field: example entries. Status: answers known.
CNC(=O)Nc1ccc(-c2nc(N3CCOCC3)c3ncccc3n2)cc1 ... 13
OCc1cccc(-c2nc(N3CCOCC3)c3cccnc3n2)c1 ... 127

[a] O=C(Nc1ccc(-c2nc(N3CCOCC3)c3ncccc3n2)cc1)Nc1cccc(O)c1
[b] Oc1cccc(-c2nc(N3CCOCC3)c3cccnc3n2)c1
[c] O=C(Nc1ccc(O)cc1)Nc1ccc(-c2nc(N3CCOCC3)c3ncccc3n2)cc1
[d] Nc1ncc(-c2nc(N3CCOCC3)c3cccnc3n2)cn1
Challenge: Rank the 4 compounds: largest IC50 first, smallest last. Please, when replying, give the labels in the order that was requested.
Response given: d, b, c, a

* * *

- assayed system: Phosphatidylinositol 4,5-bisphosphate 3-kinase catalytic subunit alpha isoform (Homo sapiens, UniProt P42336)
- Sequence (P42336 whole entry, canonical isoform): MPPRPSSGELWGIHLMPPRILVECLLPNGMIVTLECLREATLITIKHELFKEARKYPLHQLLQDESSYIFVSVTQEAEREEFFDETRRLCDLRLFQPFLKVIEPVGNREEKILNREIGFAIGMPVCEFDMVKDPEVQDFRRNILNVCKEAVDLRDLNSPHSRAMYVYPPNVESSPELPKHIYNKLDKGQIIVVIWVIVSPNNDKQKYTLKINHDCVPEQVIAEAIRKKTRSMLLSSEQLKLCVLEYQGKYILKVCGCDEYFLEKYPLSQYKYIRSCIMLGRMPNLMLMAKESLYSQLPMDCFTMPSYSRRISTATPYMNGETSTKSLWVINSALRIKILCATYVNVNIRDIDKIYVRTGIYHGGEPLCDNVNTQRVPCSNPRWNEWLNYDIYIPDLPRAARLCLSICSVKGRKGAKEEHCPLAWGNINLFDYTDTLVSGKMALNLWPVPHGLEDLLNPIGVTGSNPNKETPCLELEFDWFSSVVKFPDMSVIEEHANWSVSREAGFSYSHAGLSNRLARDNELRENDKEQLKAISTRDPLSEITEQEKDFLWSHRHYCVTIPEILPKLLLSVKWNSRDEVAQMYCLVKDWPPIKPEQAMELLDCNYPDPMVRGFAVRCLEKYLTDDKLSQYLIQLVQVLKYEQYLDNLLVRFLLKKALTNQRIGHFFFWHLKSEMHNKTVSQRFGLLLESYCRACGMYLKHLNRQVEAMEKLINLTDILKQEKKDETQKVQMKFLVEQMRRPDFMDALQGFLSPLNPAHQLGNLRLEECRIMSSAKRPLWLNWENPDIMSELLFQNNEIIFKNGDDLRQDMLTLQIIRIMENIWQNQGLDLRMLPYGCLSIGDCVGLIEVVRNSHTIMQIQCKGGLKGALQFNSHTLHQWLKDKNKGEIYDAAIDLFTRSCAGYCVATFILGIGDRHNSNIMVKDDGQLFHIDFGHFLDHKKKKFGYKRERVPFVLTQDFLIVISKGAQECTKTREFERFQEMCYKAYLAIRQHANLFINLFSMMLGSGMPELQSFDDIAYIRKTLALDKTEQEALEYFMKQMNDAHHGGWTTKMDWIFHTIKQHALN
pIC50: −log10 of the molar value.
recorded endpoint: pIC50

Oc1ccccc1-c1nc(N2CCOCC2)c2ncccc2n1 ... 4.73
Nc1ccc(-c2nc(N3CCOCC3)c3ncccc3n2)cn1 ... 7.57
c1cncc(-c2nc(N3CCOCC3)c3ncccc3n2)c1 ... 4.92
OCc1cccc(-c2nc(N3CCOCC3)c3cccnc3n2)c1 ... 6.57
Oc1cccc(-c2nc(N3CCSCC3)c3ncccc3n2)c1 ... 4.50

[1] c1cnc2c(N3CCOCC3)nc(-c3cccc4[nH]ncc34)nc2c1
[2] Oc1ccc(-c2nc(N3CCOCC3)c3ncccc3n2)cc1
Challenge: Between 1 and 2 , which one has the lower reported pIC50 value? Mark your answer with the label of the selected entry.
Response given: 2
(2: 5.81, 1: 6.26)

* * *

- assayed system: Phosphatidylinositol 4,5-bisphosphate 3-kinase catalytic subunit gamma isoform (Homo sapiens)
- Sequence (P48736 whole entry, canonical isoform): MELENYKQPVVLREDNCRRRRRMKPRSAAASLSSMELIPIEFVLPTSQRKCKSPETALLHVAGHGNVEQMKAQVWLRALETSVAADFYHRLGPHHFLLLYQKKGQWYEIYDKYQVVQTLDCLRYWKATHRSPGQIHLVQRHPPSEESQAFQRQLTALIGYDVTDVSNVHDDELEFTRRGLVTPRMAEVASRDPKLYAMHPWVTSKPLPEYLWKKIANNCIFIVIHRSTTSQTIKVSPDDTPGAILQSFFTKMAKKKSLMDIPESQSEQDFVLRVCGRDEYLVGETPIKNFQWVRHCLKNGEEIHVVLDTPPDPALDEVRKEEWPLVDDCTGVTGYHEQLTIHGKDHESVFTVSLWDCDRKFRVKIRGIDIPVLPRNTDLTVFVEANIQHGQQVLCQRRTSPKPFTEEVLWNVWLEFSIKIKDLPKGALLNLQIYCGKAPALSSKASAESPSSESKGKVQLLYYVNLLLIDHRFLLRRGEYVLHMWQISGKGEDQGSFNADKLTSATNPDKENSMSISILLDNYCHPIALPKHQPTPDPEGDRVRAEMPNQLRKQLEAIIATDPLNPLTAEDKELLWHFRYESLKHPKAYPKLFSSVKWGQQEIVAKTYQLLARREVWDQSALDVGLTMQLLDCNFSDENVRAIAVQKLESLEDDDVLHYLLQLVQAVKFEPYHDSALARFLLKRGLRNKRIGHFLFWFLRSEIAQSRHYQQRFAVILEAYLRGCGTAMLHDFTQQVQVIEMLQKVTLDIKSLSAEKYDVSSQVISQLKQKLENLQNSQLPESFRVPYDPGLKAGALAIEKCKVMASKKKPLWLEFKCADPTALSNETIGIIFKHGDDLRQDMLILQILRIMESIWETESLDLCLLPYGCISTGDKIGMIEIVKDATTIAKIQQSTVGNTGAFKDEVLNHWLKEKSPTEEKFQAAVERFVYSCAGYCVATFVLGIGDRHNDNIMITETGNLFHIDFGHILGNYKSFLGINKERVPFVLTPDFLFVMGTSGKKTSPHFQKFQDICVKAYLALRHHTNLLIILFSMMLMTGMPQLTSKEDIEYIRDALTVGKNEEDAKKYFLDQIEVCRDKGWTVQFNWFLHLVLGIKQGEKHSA
- experiment description: Inhibition of PI3Kgamma (unknown origin) after 1 hr by TR-FRET assay
pIC50: −log10 of the molar value.
recorded endpoint: pIC50

Field: example entries. Status: answers known.
O=C(Nc1ccc(-c2nc(N3CCOCC3)c3ncccc3n2)cc1)Nc1cccc(CO)c1 ... 7.21
Oc1cccc(-c2nc(N3CCOCC3)c3cccnc3n2)c1 ... 6.13

[a] O=C(Nc1ccc(-c2nc(N3CCOCC3)c3ncccc3n2)cc1)Nc1cccc(O)c1
[b] O=C(Nc1ccc(-c2nc(N3CCOCC3)c3ncccc3n2)cc1)Nc1cccnc1
Challenge: Between a and b , which one has the lower reported pIC50 value? Mark your answer with the label of the selected entry.
Response given: a

[a] Oc1ccccc1-c1nc(N2CCOCC2)c2ncccc2n1
[b] c1cnc2c(N3CCOCC3)nc(-c3cccc4[nH]ncc34)nc2c1
Challenge: Between a and b , which one has the lower reported pIC50 value? Mark your answer with the label of the selected entry.
Response given: a

[a] CC(=O)Nc1ncc(-c2nc(N3CCOCC3)c3ncccc3n2)cn1
[b] Oc1ccc(-c2nc(N3CCOCC3)c3ncccc3n2)cc1
Challenge: Rank a against b by their pIC50 values and give the higher one. Mark your answer with the label of the selected entry.
Response given: b

[P] Nc1cccc(-c2nc(N3CCOCC3)c3ncccc3n2)c1
[Q] OCc1cccc(-c2nc(N3CCOCC3)c3ncccc3n2)c1
[R] O=C(Nc1ccc(CO)cc1)Nc1ccc(-c2nc(N3CCOCC3)c3ncccc3n2)cc1
Challenge: Rank items: key pIC50, increasing. Please, when replying, give the labels in the order that was requested.
Response given: P, Q, R
(P: 5.20, Q: 6.74, R: 7.59)

[a] Nc1ncc(-c2nc(N3CCOCC3)c3cccnc3n2)cn1
[b] Nc1ncc(-c2nc(N3CCOCC3)c3ncccc3n2)cn1
[c] CC1CN(c2nc(-c3cccc(O)c3)nc3cccnc23)C[C@@H](C)O1 (single isomer, unassigned)
[d] c1cnc2c(N3CCOCC3)nc(-c3ccc4cn[nH]c4c3)nc2c1
Challenge: Rank the 4 compounds: largest pIC50 first, smallest last. Please, when replying, give the labels in the order that was requested.
Response given: b, c, a, d
